# key: entry, value: AC50
- SYSTEM NAME: Leukotriene A-4 hydrolase (Homo sapiens, UniProt P09960)
- Sequence (P09960 whole entry): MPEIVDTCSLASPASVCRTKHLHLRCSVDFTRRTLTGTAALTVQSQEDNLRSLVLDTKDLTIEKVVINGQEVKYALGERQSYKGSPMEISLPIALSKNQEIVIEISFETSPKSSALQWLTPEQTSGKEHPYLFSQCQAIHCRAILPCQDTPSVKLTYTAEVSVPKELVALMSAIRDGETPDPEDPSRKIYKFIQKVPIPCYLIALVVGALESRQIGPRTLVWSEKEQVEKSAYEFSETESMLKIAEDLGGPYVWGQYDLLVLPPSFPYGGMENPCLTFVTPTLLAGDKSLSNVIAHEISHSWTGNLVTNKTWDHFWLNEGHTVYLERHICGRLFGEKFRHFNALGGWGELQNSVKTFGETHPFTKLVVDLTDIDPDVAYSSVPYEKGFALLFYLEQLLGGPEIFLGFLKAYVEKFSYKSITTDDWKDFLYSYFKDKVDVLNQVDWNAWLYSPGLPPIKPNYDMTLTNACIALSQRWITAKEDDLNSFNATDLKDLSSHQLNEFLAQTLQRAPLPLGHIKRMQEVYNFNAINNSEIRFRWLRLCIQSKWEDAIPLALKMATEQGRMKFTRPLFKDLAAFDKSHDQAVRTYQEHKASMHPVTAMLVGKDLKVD
- ASSAY OVERVIEW: Activation of aminopeptidase activity of human recombinant leukotriene A4 hydrolase expressed in Escherichia coli assessed as p-nitroanilide release by spectrophotometry
READOUT TYPE: AC50 (µM)

- MOLECULE: "COc1ccc(Oc2ccc(O)cc2)cc1"
  REPORTED RESULT: 17
- MOLECULE: "Oc1ccc(Oc2ccccc2)cc1"
  REPORTED RESULT: 11.1
- MOLECULE: "COc1ccc(Oc2ccccc2)cc1"
  REPORTED RESULT: 3.39
- MOLECULE: "CCOc1ccc(Oc2ccc(O)cc2)cc1"
  REPORTED RESULT: 14.8
- MOLECULE: "CCOc1ccc(Oc2ccccc2)cc1"
  REPORTED RESULT: 2.82
- MOLECULE: "c1ccc(Oc2ccccc2)cc1 [DIPHENYLETHER]"
  REPORTED RESULT: 6.01

###

- SYSTEM NAME: Leukotriene A-4 hydrolase (Homo sapiens, UniProt P09960)
- ASSAY OVERVIEW: Inhibition of aminopeptidase activity of human recombinant leukotriene A4 hydrolase expressed in Escherichia coli assessed as p-nitroanilide release by spectrophotometry
READOUT TYPE: log10(IC50) (log10 of the value in µM)

- SAMPLE SMILES: "CCCOc1ccc(Oc2ccc(O)cc2)cc1"
  log10(IC50): 0.76
- SAMPLE SMILES: "CCCCCOc1ccc(Oc2ccccc2)cc1"
  log10(IC50): 0.62
- SAMPLE SMILES: "CCCCOc1ccc(Oc2ccccc2)cc1"
  log10(IC50): 0.76
- SAMPLE SMILES: "NCCOc1ccc(Oc2ccccc2)cc1"
  log10(IC50): -0.64
- SAMPLE SMILES: "CCCCOc1ccc(Oc2ccc(O)cc2)cc1"
  log10(IC50): 0.75
- SAMPLE SMILES: "CCCCCOc1ccc(Oc2ccc(O)cc2)cc1"
  log10(IC50): 0.39

###

- SYSTEM NAME: UniProtKB P09960
- ASSAY OVERVIEW: Inhibition of epoxide hydrolase activity of human recombinant leukotriene A4 hydrolase expressed in Escherichia coli assessed as LTB4 production by RP-HPLC

- SAMPLE SMILES: "NCCOc1ccc(Oc2ccccc2)cc1"
  IC50 / nM: 35

The values you see were collected from ChEMBL document CHEMBL1152166.
